assay: supercomplex reporter luminescence per Hoechst cell count – Hoechst nuclei count (AID 1645838); conditions: Cells, luminescence/Hoechst cell count ratio, measured here: cell number, Hoechst nuclei count, library stock concentration (final well concentration not given) 10 mM;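 note: control cybrid cells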
The campaign covered roughly 2,000 compounds. About 100 (5%) were called active. Only a selection was taken, and actives are over-represented in it overall.
Could you please report measured cell count for the items listed next?
Numbers only.

O=c1ncccn1C1OC(CO)C(O)C1O (stereo not given) : 3500
O=C(c1cc(Cc2n[nH]c(=O)c3ccccc23)ccc1F)N1CCN(C(=O)C2CC2)CC1 : 3720
COC(=O)C(CCSC)NC(=O)c1ccc(NCC(N)CS)cc1-c1ccccc1 (stereo not given) : 5780
CC(C)(C)CC1NC(C(=O)NC2CCC(O)CC2)C(c2cccc(Cl)c2F)[C@]12C(=O)Nc1cc(Cl)ccc12 (stereo not given in full) : 7510
OC(COc1cccc2ncccc12)CN1CCN(C2c3ccccc3C3C(c4ccccc42)C3(F)F)CC1 (stereo not given) : 3800
CC(C)CC(NC(=O)NC(CCC(=O)O)C(=O)O)C(=O)O (stereo not given) : 6410
O=C(Oc1nsnc1N1CCCCC1)N1CCOCC1 : 4260
c1ccc(Nc2nc3c(s2)CCCc2[nH]ncc2-3)nc1 : 5550

Batch of 2 molecules: report cell count for each.
1. Nc1nc(OC(c2ccc(-c3cccc(F)c3)cc2)C(F)(F)F)cc(-c2ccc(CC(N)C(=O)O)cc2)n1 (stereo not given)
2. CN(C)CCC1(c2ccc(Cl)cc2)Cc2ccccc2C(=O)O1 (stereo not given)

4880
6170

These entries and their values trace back to PubChem BioAssay AID1645838.
